Test: Quantitative highthroughput screen to assess conditional lethalithy of NOMO1 cells grown in Human Plasma-Like Medium with dialyzed fetal bovine serum (HPLM+ds) (AID 1963878); also: nearly all actives have a fitted effect of over 35% in size
Conditions: NOMO1 AML cells in HPLM+ds, CellTiter-Glo viability, 48 h; series mostly up to 45.8 µM
Inconclusive results are not listed. The source made the active and inactive calls. Calls follow the shape of the dose curve; as a rule, active = well fitted cell-killing curve with a large enough effect; inconclusive = small, poorly fitted or top-dose-only effect, or effect the other way; inactive = no such curve, though single readings can be large or run the other way.
API: response.call in active, inactive

Returns: the outcome recorded for `O=C1CCc2ccc(OCCCCN3CCN(c4cccc(Cl)c4Cl)CC3)cc2N1` in this assay.
inactive

Returns: the outcome recorded for `O=C(Nc1cc(Cl)cc2c1[nH]c1cnccc12)c1cccnc1` in this assay.
inactive

Returns: the outcome recorded for `CC(C)N(CCCNC(=O)Nc1ccc(C(C)(C)C)cc1)C[C@H]1O[C@@H](n2cc(Br)c3c(N)ncnc32)[C@H](O)[C@H]1O` in this assay.
active

Returns: the outcome recorded for `Cc1cccc(-c2[nH]c(C(C)(C)C)nc2-c2ccc3c(c2)OCO3)n1` in this assay.
active

Returns: the outcome recorded for `CN1CCC(COc2cnc(-c3cccc(Cn4nc(-c5cccc(C#N)c5)ccc4=O)c3)nc2)CC1` in this assay.
inactive
